assay: Rat pharmacokinetics; format: in vivo, SD rats; details: male, SD, plasma, iv
property_label: log10 of half-life (log10 of the value in min)
Remember, log10 of half-life, in min.

Reference set, count: 2
Ask: Item under review: O=C(O)c1ccc(NC(=O)[C@H](Cc2ccccc2)n2cnc(-c3cc(Cl)ccc3-n3cc(Cl)nn3)cc2=O)cc1 [Compound A, reference compound] . Reported log10 of half-life?
Result: 1.55

Ask: Bench note: what log10 of half-life did COCCOc1nn([C@@H](Cc2ccccc2)C(=O)Nc2ccc(C(=O)O)cc2)c(=O)cc1-c1cc(Cl)ccc1C(C)=O [Example 21] show?
Result: 1.47

Now turn to the next molecule.
Ask: Please give the measured log10 of half-life for this molecule: CC(=O)c1ccc(Cl)cc1-c1cc(=O)n([C@@H](Cc2ccccc2)C(=O)Nc2ccc(C(=O)O)cc2)nc1OC1COC1 [Example 24]
Result: 2.23

Data provenance is patent US20230027295A1.
